B1: CPEB3 Ribozyme (parent)
chain: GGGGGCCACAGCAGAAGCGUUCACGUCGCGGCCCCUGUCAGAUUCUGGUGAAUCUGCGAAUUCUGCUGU

- Variants of: B1
- Measurement description: self-cleavage, relative activity (ratio to wild type); higher = more cleavage; co-transcriptional
Each entry below lists one item and its recorded self-cleavage value.

[
  {
    "Mut": "G14C G30C",
    "self-cleavage": 0.142
  },
  {
    "Mut": "C22U A40U",
    "self-cleavage": 0.184
  },
  {
    "Mut": "A23C G28U",
    "self-cleavage": 0.2
  },
  {
    "Mut": "U44A A52G",
    "self-cleavage": 0.988
  },
  {
    "Mut": "G14A G41U",
    "self-cleavage": 0.264
  },
  {
    "Mut": "C6G C54A",
    "self-cleavage": 0.162
  },
  {
    "Mut": "U26G U36A",
    "self-cleavage": 0.186
  },
  {
    "Mut": "G17C C29G",
    "self-cleavage": 0.931
  },
  {
    "Mut": "G37U A51G",
    "self-cleavage": 0.266
  },
  {
    "Mut": "G30A G58A",
    "self-cleavage": 0.682
  },
  {
    "Mut": "G17U C57G",
    "self-cleavage": 0.16
  },
  {
    "Mut": "A13G U43A",
    "self-cleavage": 0.617
  },
  {
    "Mut": "G50U U53G",
    "self-cleavage": 0.871
  },
  {
    "Mut": "G28C U62G",
    "self-cleavage": 0.209
  },
  {
    "Mut": "U49C U64A",
    "self-cleavage": 0.89
  },
  {
    "Mut": "A40G A51G",
    "self-cleavage": 0.979
  },
  {
    "Mut": "G3A C27U",
    "self-cleavage": 0.0889
  },
  {
    "Mut": "C39A U43G",
    "self-cleavage": 0.295
  },
  {
    "Mut": "C33A G41C",
    "self-cleavage": 0.343
  },
  {
    "Mut": "C29U U53A",
    "self-cleavage": 0.267
  },
  {
    "Mut": "U26A A51C",
    "self-cleavage": 0.871
  },
  {
    "Mut": "U26G G48A",
    "self-cleavage": 0.937
  },
  {
    "Mut": "G5U C33U",
    "self-cleavage": 0.121
  },
  {
    "Mut": "C9U A15G",
    "self-cleavage": 1.05
  },
  {
    "Mut": "U43G G65A",
    "self-cleavage": 0.453
  },
  {
    "Mut": "C32U U49G",
    "self-cleavage": 1.01
  },
  {
    "Mut": "C34A G37C",
    "self-cleavage": 0.262
  },
  {
    "Mut": "G1C G2U",
    "self-cleavage": 0.142
  },
  {
    "Mut": "A23G G58U",
    "self-cleavage": 0.972
  },
  {
    "Mut": "U46A U62A",
    "self-cleavage": 0.937
  },
  {
    "Mut": "G17C U53A",
    "self-cleavage": 0.144
  },
  {
    "Mut": "C33U C54G",
    "self-cleavage": 0.828
  },
  {
    "Mut": "A13U C27U",
    "self-cleavage": 0.134
  },
  {
    "Mut": "G2C C39A",
    "self-cleavage": 0.108
  },
  {
    "Mut": "C34U U36A",
    "self-cleavage": 0.228
  },
  {
    "Mut": "U53C U69A",
    "self-cleavage": 0.977
  },
  {
    "Mut": "C27A U43C",
    "self-cleavage": 0.404
  },
  {
    "Mut": "U46G U49G",
    "self-cleavage": 0.972
  },
  {
    "Mut": "G3U G14A",
    "self-cleavage": 0.0323
  },
  {
    "Mut": "G14C C32U",
    "self-cleavage": 0.716
  }
]
